Reported MIC, Salmonella typhi T-63.
Field note: include the unit after the figure.

Asked: Which measured MIC value corresponds to CNC[C@@H]1CC[C@@H](N)[C@@H](O[C@H]2C[C@@H](O[C@H]3O[C@H](CO)[C@@H](O)[C@H](N)[C@H]3O)[C@H](NC(=O)C(O)CN)C[C@@H]2N)O1 (some centres unmarked) [AHP-trideoxyMKMB] ?
Given back: 3.13 µg/mL

Asked: Now consider NCC[C@H](O)C(=O)N[C@@H]1C[C@H](N)[C@@H](O[C@H]2O[C@H](CN)CC[C@H]2N)[C@H](O)[C@H]1O[C@H]1O[C@H](CO)[C@@H](O)[C@H](N)[C@H]1O [Habekacin, reference compound] .
Given back: 1.56 µg/mL

Asked: Request: CNC[C@@H]1CC[C@@H](N)[C@@H](O[C@H]2C[C@@H](O[C@H]3O[C@H](CO)[C@@H](O)[C@H](N)[C@H]3O)[C@H](NC(=O)[C@@H](O)CCCN)C[C@@H]2N)O1 [AHV-trideoxyMKMB]
Given back: 3.13 µg/mL

Asked: Could you do the same for CNC[C@@H]1CC[C@@H](N)[C@@H](O[C@H]2C[C@@H](O[C@H]3O[C@H](CO)[C@@H](O)[C@H](N)[C@H]3O)[C@H](NC(=O)[C@@H](O)CCN)C[C@@H]2N)O1 [AHB-trideoxyMKMB] , please?
Given back: 1.56 µg/mL

Asked: Next up: C[C@H]1O[C@H](O[C@@H]2C[C@H](O[C@H]3O[C@H](CN)CC[C@H]3N)[C@@H](N)C[C@H]2N)[C@H](O)[C@@H](N)[C@@H]1O [TetradeoxyKMB, 5,3',4',6"-tetradeoxykanamycin B]
Given back: 12.5 µg/mL

Where these numbers come from: patent US4410516A
